Target: T1, rhesus serum albumin (rhesus, UniProt Q28522 17-600)
T1 construct: also called RhSA; Rh-SA
T1 sequence (Q28522 17-600 limits assumed): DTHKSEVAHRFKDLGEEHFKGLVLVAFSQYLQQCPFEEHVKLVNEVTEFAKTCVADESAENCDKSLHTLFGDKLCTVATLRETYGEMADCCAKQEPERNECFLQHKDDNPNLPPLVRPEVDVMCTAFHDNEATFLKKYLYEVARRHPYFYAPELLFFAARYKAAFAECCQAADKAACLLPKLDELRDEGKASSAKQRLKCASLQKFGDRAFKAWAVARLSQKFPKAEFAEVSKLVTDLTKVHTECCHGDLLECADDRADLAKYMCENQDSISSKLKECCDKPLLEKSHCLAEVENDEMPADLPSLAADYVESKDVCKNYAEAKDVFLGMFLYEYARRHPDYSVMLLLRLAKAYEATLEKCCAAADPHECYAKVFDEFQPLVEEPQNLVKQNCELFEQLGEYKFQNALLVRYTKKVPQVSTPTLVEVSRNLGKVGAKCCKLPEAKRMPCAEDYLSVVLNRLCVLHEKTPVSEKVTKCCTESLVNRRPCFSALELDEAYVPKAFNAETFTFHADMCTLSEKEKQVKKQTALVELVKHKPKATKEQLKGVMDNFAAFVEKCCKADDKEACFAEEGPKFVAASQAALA
Assay: direct binding ELISA, albumin coated
pEC50 values, listed per item
Convention used: pEC50 is expressed as -log10 of the molar concentration.

Reference set, count: 5
PCSK9-PKE2 tandem 4472_H11 (designed binder, not shown: small tags and cut ends, The two parts are one polypeptide in the real molecule, joined by the undisclosed linker P (a code, not a proline); they are given here as separate chains.) PCSK9 10Fn3: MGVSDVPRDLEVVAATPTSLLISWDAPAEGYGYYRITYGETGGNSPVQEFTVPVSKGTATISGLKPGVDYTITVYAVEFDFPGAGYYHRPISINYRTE PKE2 10Fn3: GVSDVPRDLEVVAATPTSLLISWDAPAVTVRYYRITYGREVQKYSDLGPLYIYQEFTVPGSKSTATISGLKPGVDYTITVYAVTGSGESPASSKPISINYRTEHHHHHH ... 7.24
PCSK9-PKE2 tandem 4472_B09 (designed binder, not shown: small tags and cut ends, The two parts are one polypeptide in the real molecule, joined by the undisclosed linker K; they are given here as separate chains.) PCSK9 10Fn3: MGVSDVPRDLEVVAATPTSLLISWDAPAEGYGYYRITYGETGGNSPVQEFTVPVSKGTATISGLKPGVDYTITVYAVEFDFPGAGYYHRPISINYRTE PKE2 10Fn3: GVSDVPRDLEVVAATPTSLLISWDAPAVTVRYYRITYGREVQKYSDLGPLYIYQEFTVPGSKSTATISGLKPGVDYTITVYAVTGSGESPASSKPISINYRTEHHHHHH ... 7.35
PCSK9-PKE2 tandem 4472_B11 (designed binder, not shown: small tags and cut ends, The two parts are one polypeptide in the real molecule, joined by the undisclosed linker L; they are given here as separate chains.) PCSK9 10Fn3: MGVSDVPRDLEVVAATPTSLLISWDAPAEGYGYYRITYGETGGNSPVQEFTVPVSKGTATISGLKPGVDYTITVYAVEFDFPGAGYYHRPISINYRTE PKE2 10Fn3: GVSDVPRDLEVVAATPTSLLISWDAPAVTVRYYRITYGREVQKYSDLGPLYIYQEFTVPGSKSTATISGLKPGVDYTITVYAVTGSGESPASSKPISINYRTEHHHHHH ... 7.27
PCSK9-PKE2 tandem 4472_G10 (designed binder, The real molecule is ONE polypeptide: PCSK9 domain, undisclosed linker H (a code letter), PKE2 domain. It is given here as two chains because the linker letters are unknown., not shown: The inter-domain linker) PCSK9 domain: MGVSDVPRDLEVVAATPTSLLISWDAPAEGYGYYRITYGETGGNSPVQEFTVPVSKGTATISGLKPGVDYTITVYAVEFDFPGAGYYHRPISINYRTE PKE2 domain: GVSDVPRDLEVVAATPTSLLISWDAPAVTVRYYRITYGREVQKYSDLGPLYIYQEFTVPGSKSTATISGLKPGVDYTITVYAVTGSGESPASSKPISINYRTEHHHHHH ... 7.32
PCSK9-PKE2 tandem 4472_B10 (designed binder, The real molecule is ONE polypeptide: PCSK9 domain, undisclosed linker J, PKE2 domain. It is given here as two chains because the linker letters are unknown., not shown: The inter-domain linker) PCSK9 domain: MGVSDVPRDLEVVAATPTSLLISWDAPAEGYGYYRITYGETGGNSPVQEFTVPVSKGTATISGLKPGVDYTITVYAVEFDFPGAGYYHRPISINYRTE PKE2 domain: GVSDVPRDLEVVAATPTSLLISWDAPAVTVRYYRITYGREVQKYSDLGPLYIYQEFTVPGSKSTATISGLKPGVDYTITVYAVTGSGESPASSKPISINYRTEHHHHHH ... 7.41

Next item in the queue.
Name the recorded pEC50 for PCSK9-PKE2 tandem 4472_A11 (designed binder, In the real molecule the two parts given here are one polypeptide, joined by the undisclosed linker B. They are written as two chains only because the linker has no letters., not shown: Linker 'B' joining ...NYRTE of the PCSK9 domain to GVSDV... of the PKE2 domain) PCSK9 domain: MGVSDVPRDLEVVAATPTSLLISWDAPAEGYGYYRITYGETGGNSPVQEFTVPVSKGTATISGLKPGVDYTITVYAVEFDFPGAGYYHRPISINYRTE PKE2 domain: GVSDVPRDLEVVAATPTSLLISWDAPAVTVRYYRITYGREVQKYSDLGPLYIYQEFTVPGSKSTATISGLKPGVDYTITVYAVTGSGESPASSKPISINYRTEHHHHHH . 7.80

Measured values drawn from patent US20200048328A1 for this set.
